# system_under_test: T1, MET928 (cMET protein derived from construct 25-928) (human, UniProt P08581 25-928)
# T1 construct: MET ectodomain, residues 1-24 are the leader; produced in Lec 8 cells; background text says the ectodomain is furin-cleaved into alpha (25-307) and beta chains; biotinylated form used in selections; also called MET928 extracellular domain; Met extracellular domain
# protocol_notes: ELISA, soluble scFv
measure_name: binding result

| binder | reported_measurement |
| --- | --- |
| 110_B7 (scFv, not shown: 6xHis/tri-FLAG tags) scFv: QMQLVQSGAEVKKPGAPVKVSCKVSGYTFTDYYMHWVQQAPGKGLEWMGLVDPEDGETIYAEKFQGRVTITADTSTDTAYMELSSLRSEDTAVYYCATDGLWMYYGMDVWGQGTLVTVSSLEGGGGSGGGGSGGGASDIQMTQSPSSLSASVGDRVTITCQASQDISNYLNWYQQKPGRAPKVLIYDASNLETGVPSRFSGSGSGTEFTLTISNLRPDDFATYYCQQGDSFPLTFGGGTKVEIK | binds |
| 110_B3 (scFv, not shown: 6xHis/tri-FLAG tags) scFv: QMQLVQSGAEVKKPGAPVKVSCKVSGYTFTDYYMHWVQQAPGKGLEWMGLVDPEDGETIYAEKFQGRVTITADTSTDTAYMELSSLRSEDTAVYYCATDMELNYYGMDVWGQGTLVTVSSLEGGGGSGGGGSGGGASDIQMTQSPSSLSASVGDRVTITCQASQDISNYLNWYQQKPGRAPKVLIYDASNLETGVPSRFSGSGSGTEFTLTISNLRPDDFATYYCQQGDSFPLTFGGGTKVEIK | binds |
